Catalogue of compounds with associated Bliss excess
- Test system: NCI-H2595 (Mesothelioma);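 also: after 72 h of two-drug dosing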
- ASSAY DETAILS: Bliss excess, mean over the matrix (fraction); higher = more synergy

# count of solved cases: 3
{"columns": ["COMPOUND", "Bliss excess"],
 "data": [
  ["N#Cc1cnc(Nc2cc(NC[C@H]3CNCCO3)c(C(F)(F)F)cn2)cn1 [SRA737] + C=CCn1c(=O)c2cnc(Nc3ccc(N4CCN(C)CC4)cc3)nc2n1-c1cccc(C(C)(C)O)n1 [AZD1775] (first compound max 10 µM, partner max 1 µM)", -0.0688],
  ["CC(=O)c1c(C)c2cnc(Nc3ccc(N4CCNCC4)cn3)nc2n(C2CCCC2)c1=O [Palbociclib] + Cc1c2c(nn1C)CSCc1cc(n(C)n1)CSc1cc(c3ccccc3c1)OCCCc1c(C(=O)O)n(C)c3c-2c(Cl)ccc13 [AZD5991] (first compound max 10 µM, 7x7, partner max 1 µM)", -0.0622],
  ["C[C@@H]1COCCN1c1cc(C2([S@](C)(=N)=O)CC2)nc(-c2ccnc3[nH]ccc23)n1 [AZD6738] + C1CC(C1)(C(=O)[O-])C(=O)[O-].N.N.[Pt+2] [Carboplatin] (first compound max 10 µM, 7x7, partner max 10 µM)", -0.0413]
]}

Prompt line: Output measured Bliss excess for this item: Cc1cc2ncnn2cc1Nc1ncc2c(n1)n(C1CCOCC1)c(=O)n2C [AZD7648] + C[C@@H]1COCCN1C2=NC(=NC(=C2)C3(CC3)[S@](=N)(=O)C)C4=C5C=CNC5=NC=C4 [AZD6738] (first compound max 10 µM, 7x7, partner max 10 µM)
Response line: -0.0059

Prompt line: Output measured Bliss excess for this item: Cc1c2c(nn1C)CSCc1cc(n(C)n1)CSc1cc(c3ccccc3c1)OCCCc1c(C(=O)O)n(C)c3c-2c(Cl)ccc13 [AZD5991] + CC(=O)O[C@H]1C(=O)[C@@]2(C)[C@H]([C@H](OC(=O)c3ccccc3)[C@]3(O)C[C@H](OC(=O)[C@H](O)[C@@H](NC(=O)c4ccccc4)c4ccccc4)C(C)=C1C3(C)C)[C@]1(OC(C)=O)CO[C@@H]1C[C@@H]2O [Paclitaxel] (first compound max 1 µM, 7x7, partner max 3 µM)
Response line: -0.0504

Prompt line: Output measured Bliss excess for this item: Cn1cnc2c(F)c(Nc3ccc(Br)cc3Cl)c(C(=O)NOCCO)cc21 [Selumetinib] + CC(C)n1c(=O)n(C)c2cnc3cc(F)c(-c4ccc(OCCCN5CCCCC5)nc4)cc3c21 [AZD1390] (first compound max 10 µM, 7x7, partner max 0.3 µM)
Response line: -0.0415

Prompt line: Output measured Bliss excess for this item: CC(=O)c1c(C)c2cnc(Nc3ccc(N4CCNCC4)cn3)nc2n(C2CCCC2)c1=O [Palbociclib] + Cn1cnc2c(F)c(Nc3ccc(Br)cc3Cl)c(C(=O)NOCCO)cc21 [Selumetinib] (first compound max 10 µM, 7x7, partner max 10 µM)
Response line: -0.0429

Prompt line: Output measured Bliss excess for this item: CN(CCO)CC[C@H](CSc1ccccc1)Nc1ccc(S(=O)(=O)NC(=O)c2ccc(N3CCC([C@@H](O)c4ccccc4-c4ccc(Cl)cc4)CC3)cc2)cc1S(=O)(=O)C(F)(F)F [AZD4320] + C[C@@H](Nc1cc(F)cc(F)c1)c1cc(C(=O)N(C)C)cc2c(=O)cc(N3CCOCC3)oc12 [AZD8186] (first compound max 1 µM, 7x7, partner max 3 µM)
Response line: 0.0344

Prompt line: Output measured Bliss excess for this item: Cc1c2c(nn1C)CSCc1cc(n(C)n1)CSc1cc(c3ccccc3c1)OCCCc1c(C(=O)O)n(C)c3c-2c(Cl)ccc13 [AZD5991] + C=CCn1c(=O)c2cnc(Nc3ccc(N4CCN(C)CC4)cc3)nc2n1-c1cccc(C(C)(C)O)n1 [AZD1775] (first compound max 1 µM, partner max 1 µM)
Response line: -0.0127
